meta.source: PubChem BioAssay (NCI)

Let's look at some compounds and their measured TGI.
# System: OVCAR-8 ovarian
# protocolSummary: NCI tumour cell line growth inhibition, 48 h

Give TGI only, for `Cc1c2cc[n+](COC(=O)c3ccccc3)cc2c(C)c2c1[nH]c1ccccc12` , using OVCAR-8 ovarian data.
2.11 µM

Give TGI only, for CCN(CC)CC(O)c1ccc2ccc3ccccc3c2c1 (centres undefined) , using OVCAR-8 ovarian data.
32 µM

Give TGI only, for `NS(=O)(=O)c1nnc(NC(=O)CCC(=O)O)s1` , using OVCAR-8 ovarian data.
> 100 µM

Give TGI only, for `COc1cc(Cn2c3c(c4c(CN(C)C)c(O)ccc42)C(=O)c2ccccc2C3=O)cc(OC)c1` , using OVCAR-8 ovarian data.
28.3 µM

Give TGI only, for `Nc1[nH]c(=O)nc2sc3c(c12)CCCC3` , using OVCAR-8 ovarian data.
> 100 µM

----------
# Test system: HCT-15 colon
# protocolSummary: NCI tumour cell line growth inhibition, 48 h
valueKind: log10(TGI) (log10 of the value in µM)
Units before log transform: µM; reported quantity: TGI; transform: log10.

C=C1C(=O)OC2/C=C(\C)CC/C=C(/C)CC(OC(=O)/C(=C/CO)CO)C12 (stereo not given) : 1.58
O=C1C2=C(C(=O)c3c(O)ccc(O)c31)N(c1ccc(N3CCOCC3)nc1)Cc1ccccc1O2 : -0.21
O=C1C=C2S[C@H]3C[C@]2(C=C1Br)c1c(c(O)c2c4c1=NCCC=4C=N2)N3 : 0.30
Cc1c2ccccc2c(C)c2c3c(ccc12)C(=O)C=CC3=O : 1.63
COC1/C=C\C=C(/C)C(=O)NC2=CC(=O)C=C(C2=O)C(OC)C(C)CC(OC)C(OC)C(C)/C=C(/C)C1OC(N)=O (stereo not given) : 1.19

Return the recorded log10(TGI) value; entry: `C=C1CC[C@@H]2C(C)(C)[C@@H](O)CC[C@@]2(C)[C@@H]1COc1ccc2ccc(=O)oc2c1`
1.43

----------
Let's look at some molecules and their measured TGI.
# System: NCI-H226 lung
# protocolSummary: NCI tumour cell line growth inhibition, 48 h

CCCCC1Cc2cc(O)ccc2-c2n1c1cc(O)ccc1[n+]2C (configuration not stated) (tested in a mixture with another compound) : > 100 µM
C=C1CC(OC(C)=O)/C=C(/C)CCC(C(C)(C)O)CC1O (configuration not stated) : > 100 µM
C1CNCCN2CCCNCCN(C1)CC2 : > 100 µM
COc1ccc2c(c1)C(=O)c1c-2n(CCCN=[N+]=[N-])c(=O)c2ccccc12 : > 100 µM
O=C(NC(=O)c1cn(CCN2CCNCC2)c(=O)[nH]c1=O)OCc1ccccc1 : > 100 µM

Return the recorded TGI value; entry: `O=C(Nc1cccc(Cl)c1)Nc1cccc(Cl)c1`
> 100 µM

Return the recorded TGI value; entry: `CN(C)c1nc(N(C)C)nc(N(C)CN(C)c2ccccc2)n1`
> 100 µM

Return the recorded TGI value; entry: CC(=O)OC1C=CC2CCN3C(=O)c4cc5c(cc4[C@H]1C23)OCO5 (some centres not stated)
> 100 µM

Return the recorded TGI value; entry: `COc1ccc(CN2c3ccccc3Sc3ccccc32)cc1F`
> 100 µM

Return the recorded TGI value; entry: CC(=O)OC1(C#N)CC2OC1C1C2N1C(=O)c1ccccc1 (configuration not stated)
> 100 µM

Return the recorded TGI value; entry: `CSC1=N/C(=C\c2cccs2)C(=O)N1CN1CCOCC1`
> 100 µM

Return the recorded TGI value; entry: `NNC(N)=Nc1cccc2ccccc12`
> 100 µM
